Attribute: pEC50
target: sGC α1/β1 heterodimer (Homo sapiens (Human), UniProt Q02108+Q02153); test: Cell-based sGC functional assay (cyclic GMP assay for sGC activator: CASA assay); settings: inflection point, 4P fit; CHO-K1/sGC cells; read-out: IP
Sequence (Q02108 whole entry): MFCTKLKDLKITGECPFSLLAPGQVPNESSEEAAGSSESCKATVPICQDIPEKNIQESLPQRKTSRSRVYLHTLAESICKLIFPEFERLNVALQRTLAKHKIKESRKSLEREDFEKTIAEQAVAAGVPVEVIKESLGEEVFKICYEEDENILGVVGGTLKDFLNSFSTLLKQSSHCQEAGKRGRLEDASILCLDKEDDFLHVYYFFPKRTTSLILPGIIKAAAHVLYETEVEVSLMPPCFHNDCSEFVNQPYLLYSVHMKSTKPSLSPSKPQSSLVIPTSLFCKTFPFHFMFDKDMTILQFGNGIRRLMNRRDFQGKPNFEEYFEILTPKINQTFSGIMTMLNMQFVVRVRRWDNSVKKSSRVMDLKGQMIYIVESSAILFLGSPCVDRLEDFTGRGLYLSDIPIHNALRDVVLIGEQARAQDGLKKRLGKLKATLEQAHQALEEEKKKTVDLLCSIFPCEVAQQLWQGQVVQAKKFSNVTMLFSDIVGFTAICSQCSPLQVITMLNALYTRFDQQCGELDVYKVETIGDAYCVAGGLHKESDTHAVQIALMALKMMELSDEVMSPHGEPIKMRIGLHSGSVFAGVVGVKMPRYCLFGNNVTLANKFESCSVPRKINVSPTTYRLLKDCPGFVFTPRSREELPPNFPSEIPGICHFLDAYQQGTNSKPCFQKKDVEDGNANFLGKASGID
Sequence (Q02153 whole entry): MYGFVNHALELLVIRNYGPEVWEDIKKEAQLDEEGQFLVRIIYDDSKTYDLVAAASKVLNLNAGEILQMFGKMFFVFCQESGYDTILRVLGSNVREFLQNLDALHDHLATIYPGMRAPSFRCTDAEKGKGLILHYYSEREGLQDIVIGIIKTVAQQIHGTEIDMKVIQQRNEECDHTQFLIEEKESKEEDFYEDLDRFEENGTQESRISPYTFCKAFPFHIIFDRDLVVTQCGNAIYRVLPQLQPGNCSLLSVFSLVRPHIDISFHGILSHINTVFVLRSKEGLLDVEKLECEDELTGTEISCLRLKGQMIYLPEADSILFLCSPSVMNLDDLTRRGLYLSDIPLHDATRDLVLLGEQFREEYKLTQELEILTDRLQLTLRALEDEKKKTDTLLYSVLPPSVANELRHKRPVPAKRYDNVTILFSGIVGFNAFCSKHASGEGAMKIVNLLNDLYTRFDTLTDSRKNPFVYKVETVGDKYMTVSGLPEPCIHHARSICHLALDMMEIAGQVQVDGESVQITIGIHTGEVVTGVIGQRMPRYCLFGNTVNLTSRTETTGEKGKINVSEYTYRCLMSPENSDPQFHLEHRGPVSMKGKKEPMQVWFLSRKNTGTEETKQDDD
pEC50: −log10 of the molar value.
measured property: pEC50

CC1(c2ccc(CCC(=O)O)cn2)C(=O)Nc2nc(-c3nn(CCC(F)(F)C(F)(F)F)c4cc(Cl)ccc34)nc(N)c21 (stereo not drawn) [Example 119B]
6.08
CC(C)(C)CCn1nc(-c2nc(N)c3c(n2)NC(=O)[C@@]3(C)c2ccc(CCC(=O)O)cc2)c2cccnc21 [Example 210B]
5.69
Cc1oc(C2(C)C(=O)Nc3nc(-c4nn(Cc5cccc(F)c5)c5cc(F)ccc45)nc(N)c32)nc1CC(C)(C)C(=O)O (stereo not drawn) [Example 198B]
5.97
CC(C)(Cc1csc([C@]2(C)C(=O)Nc3nc(-c4nn(CC5CCCCC5)c5ncccc45)nc(N)c32)n1)C(=O)O (single isomer, unassigned) [Example 151A]
6.71
CC(C)(Cc1csc([C@]2(C)C(=O)Nc3nc(-c4nn(CC5CCCCO5)c5ncccc45)nc(N)c32)n1)C(=O)O (single isomer, unassigned) [Example 123AB]
5.71
CC1(c2cn(CC(=O)O)nn2)C(=O)Nc2nc(-c3nn(CCC(F)(F)C(F)(F)F)c4cc(Cl)ccc34)nc(N)c21 (stereo not drawn) [Example 28B]
5.66

====

Collected EC50 values appear next to each entry.
biological target: sGC α1/β1 heterodimer (Homo sapiens (Human), UniProt Q02108+Q02153); test: Cell-based sGC functional assay (cyclic GMP assay for sGC activator: CASA assay); details: inflection point, 4P fit; CHO-K1/sGC cells; read-out: IP
measured property: EC50 (nM)

CC1(c2nc(CCCC(=O)O)cs2)C(=O)Nc2nc(-c3nn(Cc4ccccc4F)c4cc(Cl)ccc34)nc(N)c21 (stereo not shown) [Example 49A]
119
CC1(c2nc(CCCC(=O)O)cs2)C(=O)Nc2nc(-c3nn(Cc4ccccc4F)c4ccccc34)nc(N)c21 (stereo not shown) [Example 55A]
432
CC1(c2nc(CC(=O)O)co2)C(=O)Nc2nc(-c3nn(Cc4ccccc4F)c4ccccc34)nc(N)c21 (stereo not shown) [Example 203A]
330
CC(C)(Cc1csc([C@]2(C)C(=O)Nc3nc(-c4nn(Cc5cccc(F)c5)c5cc(F)ccc45)nc(N)c32)n1)C(=O)O [Example 194A]
73

====

target: sGC α1/β1 heterodimer (Homo sapiens (Human), UniProt Q02108+Q02153); assay: Cell-based sGC functional assay (cyclic GMP assay for sGC activator: CASA assay); conditions: CHO-K1, activity expressed as percentage of compound A (standard); CHO-K1/sGC cells; read-out: % Activation
measured property: Emax (%)

Cc1ccc2c(-c3nc(N)c4c(n3)NC(=O)[C@@]4(C)c3ccc(CCC(=O)O)cc3)nn(CCCC(F)(F)F)c2n1 [Example 20B]
88
CC1(c2ccc(CCC(=O)O)c(Br)c2)C(=O)Nc2nc(-c3nn(CCC(F)(F)C(F)(F)F)c4cc(Cl)ccc34)nc(N)c21 (stereo not drawn) [Example 4B]
126
CCCCn1nc(-c2nc(N)c3c(n2)NC(=O)C3(C)c2ccc(CC(C)(C)C(=O)O)cc2)c2ccc(Cl)cc21 (stereo not drawn) [Example 37B]
96
